- target_system: OR51I1 (Homo sapiens) (UniProt Q9H343)
- Sequence (Q9H343 whole entry): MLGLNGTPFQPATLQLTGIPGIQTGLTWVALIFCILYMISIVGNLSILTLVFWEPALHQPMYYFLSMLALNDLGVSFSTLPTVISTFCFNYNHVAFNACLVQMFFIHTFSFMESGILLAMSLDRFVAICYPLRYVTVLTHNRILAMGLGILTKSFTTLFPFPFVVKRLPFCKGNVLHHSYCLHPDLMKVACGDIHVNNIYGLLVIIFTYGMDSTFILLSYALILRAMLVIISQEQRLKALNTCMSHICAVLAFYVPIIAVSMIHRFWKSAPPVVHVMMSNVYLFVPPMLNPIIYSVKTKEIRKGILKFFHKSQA
- condition_info: stereoisomer not certain
result_type: odorant receptor agonist call

Below, 5 molecules whose answers are already recorded.
>>> result_value("CCCCCC(=O)C(C)C(C)=O (centres undefined)")
"inactive"
>>> result_value("CC1CCCCCCCCCCCCC(=O)C1 (centres undefined)")
"inactive"
>>> result_value("CCC1OC(C)=C(O)C1=O (centres undefined)")
"inactive"
>>> result_value("CC1=C(O)C(=O)OC1C (centres undefined)")
"inactive"
>>> result_value("Cc1cnc(C)c(C)n1")
"inactive"

Any idea what its odorant receptor agonist call is? The molecule is CC1=NC(C)C(C)S1 (centres undefined)
inactive

Item under review: CCCCC(S)C(C)CO (centres undefined) . Reported odorant receptor agonist call?
inactive

Would you kindly share the measured odorant receptor agonist call for CCC1OC(=O)C(O)=C1C (centres undefined) ?
inactive

Look up odorant receptor agonist call for this molecule: CC(CO)CS (centres undefined)
inactive

All values here come from the M2OR odorant receptor database.
